Test system: 931267-113-T-J1-PDC KRAS spheroid with HUVEC/MSC, viability;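 also: compound exposure lasted 7 days before the readout; 100% = DMSO vehicle control viability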
protocol.text: Anticancer human tumor 931267-113-T-J1-PDC patient-derived colon adenocarcinoma cell line growth inhibition [KRAS2]
measurement.parameters: second compound 0.1 µM; first compound 0.00316 µM; active compounds read low
property: viability, T/C (%)
Answers are plain numbers, in %.

Batch request: viability, T/C for each of the following compounds.
1. CC(C)n1nc(-c2ccc3oc(N)nc3c2)c2c(N)ncnc21 + C=CC(=O)N1CCN(c2nc(=O)n(-c3c(C)ccnc3C(C)C)c3nc(-c4c(O)cccc4F)c(F)cc23)C(C)C1
2. CC(C)n1nc(-c2ccc3oc(N)nc3c2)c2c(N)ncnc21 + COc1cc2nc(C)nc(NC(C)c3cc(N)cc(C(F)(F)F)c3)c2cc1OC1CCOC1
3. CN(C)C/C=C/C(=O)Nc1cc2c(Nc3ccc(F)c(Cl)c3)ncnc2cc1O[C@H]1CCOC1 + COc1cc2nc(C)nc(NC(C)c3cc(N)cc(C(F)(F)F)c3)c2cc1OC1CCOC1
4. CCN1CCN(Cc2ccc(Nc3ncc(F)c(-c4cc(F)c5nc(C)n(C(C)C)c5c4)n3)nc2)CC1 + C=CC(=O)N1CCN(c2nc(=O)n(-c3c(C)ccnc3C(C)C)c3nc(-c4c(O)cccc4F)c(F)cc23)C(C)C1
5. Cn1ncnc1[C@H]1c2n[nH]c(=O)c3cc(F)cc(c23)N[C@@H]1c1ccc(F)cc1 + CNCc1ccccc1-c1csc(C(C)Nc2nc(C)nc3cc(OC)c(OC)cc23)c1
6. CCN1CCN(Cc2ccc(Nc3ncc(F)c(-c4cc(F)c5nc(C)n(C(C)C)c5c4)n3)nc2)CC1 + COc1cc2nc(C)nc(NC(C)c3cc(N)cc(C(F)(F)F)c3)c2cc1OC1CCOC1

**Result**
83.5
69
75.7
103
92.4
86.4
